Recorded values, source PubChem BioAssay (Tox21).

# PROTOCOL_TEXT: qHTS assay to test for compound auto fluorescence at 590 nm (red) in HEK293 cells (AID 720679)
# MEASUREMENT_SETUP: red autofluorescence 540/590 nm; series mostly up to 91.3 µM
Calls of active or inactive are those of the source. Calls follow the shape of the dose curve; as a rule, active = well fitted curve in the direction sought with a large enough effect in the repeat runs; inconclusive = weak or mixed curves; inactive = flat fitted curve, though single readings scatter.
QUANTITY_MEASURED: fluorescence, % of fluorescent control

Recorded fluorescence, % of fluorescent control, per entry:
Lab note: measured fluorescence, % of fluorescent control of CC(C)(C)C(=O)C(Cl)Cl was inactive

Reported fluorescence, % of fluorescent control for CC(O)CCl (stereo unspecified) was inactive

Field fluorescence, % of fluorescent control (entry CN1COCN(Cc2cnc(Cl)s2)/C1=N\[N+](=O)[O-] ) reads inactive

Looking up COC(=O)c1ccccc1CS(=O)(=O)NC(=O)Nc1nc(OC)cc(OC)n1 , I see its fluorescence, % of fluorescent control listed as inactive

Quick note, fluorescence, % of fluorescent control for BrCc1ccc(Br)cc1 landed at inactive

Record summary for Cc1cccc2sc3nncn3c12 : reported fluorescence, % of fluorescent control = inactive

Record CCNP(=S)(OC)O/C(C)=C/C(=O)OC(C)C (stereo unspecified) , field fluorescence, % of fluorescent control: inactive

Summary for this compound, C=C1C[C@@H]2[C@H](CC[C@]3(C)C(=O)CC[C@@H]23)[C@@]2(C)C=CC(=O)C=C12 : fluorescence, % of fluorescent control is inactive

Others:
O=c1[nH]oc2c1CCNC2 yielded fluorescence, % of fluorescent control of inactive

Form: compound = COc1ccc2c(C(=O)c3ccc(Cl)cc3)c(C)n(CC(=O)O)c2c1 ; fluorescence, % of fluorescent control = inactive

// recorded fluorescence, % of fluorescent control for CCCCCCCCBr : inactive

Sample CC[C@@H](CO)NC(=O)[C@@H]1C=C2c3cccc4[nH]cc(c34)C[C@H]2N(C)C1 ; fluorescence, % of fluorescent control observed: inactive

Value of measured fluorescence, % of fluorescent control for the entry N[C@@H](Cc1ccc(Oc2cc(I)c(O)c(I)c2)c(I)c1)C(=O)O : inactive

Kindly note the recorded fluorescence, % of fluorescent control for COc1cc(CC(C)N)cc(OC)c1OC (stereo unspecified) , which is inactive

Noted for CC(C)(C1CCC(O)CC1)C1CCC(O)CC1 (stereo unspecified) : its fluorescence, % of fluorescent control reads inactive

Reported fluorescence, % of fluorescent control of S=C=S : inactive

Entry COc1cc(CCN)cc(OC)c1OC ; fluorescence, % of fluorescent control = inactive

Noted for CCCCCCC1CCOC1=O (stereo unspecified) : its fluorescence, % of fluorescent control reads inactive

The recorded fluorescence, % of fluorescent control for CC[C@@H](CO)NC(=O)[C@@H]1C=C2c3cccc4c3c(cn4C)C[C@H]2N(C)C1 is inactive

The compound OP(O)c1ccccc1 showed fluorescence, % of fluorescent control equal to inactive

get_value(item= [P]#[In] , readout=fluorescence, % of fluorescent control) returns inactive

# compound C=C(Cl)CCl ; its fluorescence, % of fluorescent control = inactive

For record CCOC(=O)COc1ccc(Cl)cc1Cl the listed fluorescence, % of fluorescent control is inactive

Recorded result, COP(=O)(O)OC , fluorescence, % of fluorescent control: inactive

----------
# MEASURED_TARGET: Nuclear receptor subfamily 1 group I member 3 (Homo sapiens)
# PROTOCOL_TEXT: qHTS assay to identify small molecule agonists of the constitutive androstane receptor (CAR) signaling pathway (AID 1224839); also: nearly all actives have a fitted effect of over 15% in size;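 as to activation: HepG2 cells stably carrying human CAR and a CYP2B6 luciferase reporter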
# MEASUREMENT_SETUP: HepG2 hCAR CYP2B6-luciferase, agonist mode, 24 h; series mostly up to 92.4 µM
Records with an inconclusive call do not appear. Activity calls are given as the source filed them. Calls follow the shape of the dose curve; as a rule, active = well fitted activation curve with a large enough effect in the repeat runs; inconclusive = weak or mixed curves; inactive = no such curve, though single readings can be large or run the other way.
The categories you may choose from are active, inactive

Per the assay record, what outcome was assigned to CCN(CC)CCOC(=O)C(O)(c1ccccc1)c1ccccc1 ?
inactive

For this compound, state the assay outcome: C1CN2CCC1CC2
inactive

Please share the test call associated with c1ccc2c(c1)CCNC2 .
inactive

Which outcome was entered for the compound CC#Cc1cc(C)nc(Nc2ccccc2)n1 in this test?
active

Per the assay record, what outcome was assigned to CCCN1CCC[C@@H]2Cc3nc(N)ncc3C[C@H]21 ?
inactive

For the next question, use this compound.
Field: outcome | Entry: CC(C)c1ccc(O)cc1
inactive
